This collection of values is drawn from PubChem BioAssay AID1919008.

system: DMS-114 complex spheroids with HUVEC/MSC, growth % test/control; assay: Anticancer human tumor DMS-114 cell line growth inhibition [AhR]; conditions: second compound 0.1 µM; first compound 0.1 µM; active compounds read low;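 also: spheroids exposed to agents for 7 days before readout; 100% = DMSO vehicle control wells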
observation.type: viability, T/C (%)
Quick note: give the figure in %, leave out the unit.

Cn1ncnc1C1c2n[nH]c(=O)c3cc(F)cc(c23)NC1c1ccc(F)cc1 (configuration not stated) + CC(CO)NC(=O)c1cc(-c2ccc(Cl)cc2)nn(-c2cnn(C)c2)c1=O = 82
Nc1ncn(C2CC(O)C(CO)O2)c(=O)n1 (configuration not stated) + Cc1ccccc1N=Nc1ccc(NC(=O)c2ccnn2C)c(C)c1 = 117
CC(C)c1c(-c2ccccc2)nc2c(C#N)c[nH]n2c1=O + CC(CO)NC(=O)c1cc(-c2ccc(Cl)cc2)nn(-c2cnn(C)c2)c1=O = 95.8
CC1(C)CCC(CN2CCN(c3ccc(C(=O)NS(=O)(=O)c4ccc(NCC5CCOCC5)c([N+](=O)[O-])c4)c(Oc4cnc5[nH]ccc5c4)c3)CC2)=C(c2ccc(Cl)cc2)C1 + Cc1ccccc1N=Nc1ccc(NC(=O)c2ccnn2C)c(C)c1 = 100
O=C(c1cc(Cc2n[nH]c(=O)c3ccccc23)ccc1F)N1CCN(C(=O)C2CC2)CC1 + Cc1cncc(-c2nc(NCCc3c[nH]c4ccccc34)c3ncn(C(C)C)c3n2)c1 = 102

What viability, T/C value was documented for this compound, O=C(C=Cc1cccc(S(=O)(=O)Nc2ccccc2)c1)NO + Cc1cncc(-c2nc(NCCc3c[nH]c4ccccc34)c3ncn(C(C)C)c3n2)c1 ?
91.9

What viability, T/C value was documented for this compound, COc1cc(Nc2ncc3c(n2)-c2ccc(Cl)cc2C(c2c(F)cccc2OC)=NC3)ccc1C(=O)O + Cc1ccccc1N=Nc1ccc(NC(=O)c2ccnn2C)c(C)c1 ?
57.5

What viability, T/C value was documented for this compound, Cn1ncnc1C1c2n[nH]c(=O)c3cc(F)cc(c23)NC1c1ccc(F)cc1 (configuration not stated) + Cc1ccccc1N=Nc1ccc(NC(=O)c2ccnn2C)c(C)c1 ?
107
